- protocolText: NFAT Signaling Pathway (AID 444);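 note: carbachol stimulus at about its EC50 of 1 µM final; % is set by controls: 0 for no effect and ±100 for the full control effect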
- studyConditions: Jurkat NFAT-bla M1, carbachol, beta-lactamase ratio, 5 h; at 17.2 µM (top of the series)
Results filed as inconclusive are left out.
# activity change, negative = inhibition values compiled below
Value expressed in %; do not type the unit.

CNCCc1c[nH]c2ccccc12	-6.51

Consider the molecule CN1CCN(C(=O)OC2c3nccnc3C(=O)N2c2ccc(Cl)cn2)CC1 (configuration not stated) and give its measured activity change, negative = inhibition.
3

activity change, negative = inhibition lookup needed for C[C@@]1(CO)[C@H](O)CC[C@@]2(C)[C@H]1CC[C@H]1C[C@@H]3C[C@@]12CC[C@]3(O)CO , thanks.
10.1

Need activity change, negative = inhibition of C=CCN1CC[C@]23c4c5ccc(O)c4O[C@@H]2C(=O)CC[C@]3(O)[C@H]1C5 , thanks.
-9.64

Name the recorded activity change, negative = inhibition for CCCC(=O)OCC[N+](C)(C)C .
5.08

Fill in: activity change, negative = inhibition of COc1ccc2[nH]cc(CCN(C)C)c2c1 is ___
-12.1

Entry O=C(O)c1ccccc1-c1c2cc(Br)c(=O)cc-2oc2[c]([Hg])c(O)c(Br)cc12 : reported activity change, negative = inhibition = ?
-24.9

Recorded activity change, negative = inhibition for CN(C)[C@@H]1C(=O)C(C(N)=O)=C(O)[C@@]2(O)C(=O)C3=C(O)c4c(O)ccc(Cl)c4[C@@](C)(O)C3C[C@@H]12 (some centres not stated) , please?
0.867

Quick check: activity change, negative = inhibition of c1cncc(C2=NCCC2)c1 ?
-0.876

What does the data say about its activity change, negative = inhibition? Entry: CN1CC[C@@]23CCCC[C@@H]2[C@@H]1Cc1ccc(O)cc13
-12.7

Can you share its activity change, negative = inhibition? I mean this molecule: COC1=CC(=O)OC(/C=C/c2ccccc2)C1 (configuration not stated)
-0.501

Endpoint output: activity change, negative = inhibition of c1cncc([C@@H]2CCCCN2)c1 . Value?
-6.22

Just for reference, PubChem BioAssay (NCATS) is where these values come from.
